# STUDY_SYSTEM: T1, SARS-COV-2 RBD (SARS-COV-2, UniProt P0DTC2 319-539)
# T1 construct: also called WT RBD
# ASSAY_OVERVIEW: ELISA, RBD coated on plate
MEASURED_QUANTITY: EC50 (ng/mL)
Give the value in ng/mL but do not write ng/mL after it.

{"BINDER": "C992 (antibody, V domains shown) VH: QVQLQESGPGLVKPSQTLSLTCTVSGGSISNGGYFWTWIRQHPVKGLEWIGYIYYSGSPHYNPSLKSRLSISLDTFKNQFSLNLSSVTAADTAVYYCARGDTFGRGYYFDFWGQGTLVTVSS VL: SYELTQPPSVSVAPGQTARITCGGNNIGTNSMHWYQQKPGQAPVLVVFDDSDRPSGIPERFSGSNSGNTATLTISRVEAGDEADYHCQVWDRSSDRPWVFGGGTKLTVL", "UNITS_LABEL": "ng/mL", "EC50": 3.24}
{"BINDER": "C935 (antibody, V domains shown) VH: QVQLVESGGGVVQPGRSLRLSCAATGFTFSSYGMHWVRQAPGKGLEWVALIWYDGSNQYYVDSVKGRFTISRDNSKKTLYLQMNSLRVEDTAVYYCARDFSNSDMVTLSDAFDIWGQGTMVTVSS VL: DIQLTQSPSFLSASVGDRVTIACRASQGISSYSSYLAWYQQKPGKAPKLLIYAASTLQSGVPSRFSGSGSGTEFTLTISSLQPEDFATYYCQQLNSYPLFTFGPGTKVDIK", "UNITS_LABEL": "ng/mL", "EC50": 2.86}

Turning now to a further record.
[in] Dear colleague, please send me the reported EC50 for C1028 (antibody, V domains shown) VH: QVQLVESGGGVVQPGRSLRLSCADSGFTFSSSGMHWVRQAPGKGLEWVGVISYDGGNKYYADSVKGRFTISRDNSKNTLYLQMNSLRAEDTAVYYCAKDTPGGDDIMTGWGLYGMDVWGQGTTVTVSS VL: DIQMTQSPSSLSASVEDRVTITCRASQSISSYLNWYQQKPGKAPKLLIYAAISLQSGVPSRFSGSGSGTEFTLTISSLQPEDFATYYCQQSYTTPWAFGQGTKVEIK when you can.
[out] 3.58
